Please provide measured log10(OD values) for the entries that follow.
# SYSTEM UNDER TEST: T1, cynomolgus galectin-10-His, WGS isoform (cynomolgus)
# T1 construct: also called cynoGal10-WGS; not shown: His tag
# T1 chain: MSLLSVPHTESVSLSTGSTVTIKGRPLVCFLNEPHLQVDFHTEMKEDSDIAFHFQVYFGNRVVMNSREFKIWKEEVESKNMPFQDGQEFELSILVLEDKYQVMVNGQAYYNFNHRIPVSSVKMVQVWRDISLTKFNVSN
# EXPERIMENTAL DETAILS: ELISA, coated antigen 0.5 ug/mL
Log10 applied to OD values; unit prior to transform: OD.

[ask] Form field: reported log10(OD values) of 10B02 mouse IgG1 (antibody, V domains shown, VH and VL cloned in frame with mouse IgG1 constant domains; also called 10B02 mIgG1) VH: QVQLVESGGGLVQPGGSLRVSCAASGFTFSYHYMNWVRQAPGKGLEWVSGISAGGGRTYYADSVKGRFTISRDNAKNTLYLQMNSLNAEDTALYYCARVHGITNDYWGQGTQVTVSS VL: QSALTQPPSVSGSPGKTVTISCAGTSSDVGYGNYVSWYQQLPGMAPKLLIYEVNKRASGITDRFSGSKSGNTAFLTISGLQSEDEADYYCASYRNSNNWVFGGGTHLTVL
[reply] 0.57

[ask] Form field: reported log10(OD values) of 1D11 mouse IgG1 (antibody, V domains shown, Llama VH and VL on mouse IgG1 heavy chain constant domains (CH1-CH2-CH3) and mouse lambda light chain constant domain; also called 1D011; 1D11 mIgG1) VH: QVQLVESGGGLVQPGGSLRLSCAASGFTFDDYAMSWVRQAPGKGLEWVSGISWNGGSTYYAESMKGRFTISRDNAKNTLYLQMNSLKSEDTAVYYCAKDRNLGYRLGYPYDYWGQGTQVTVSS VL: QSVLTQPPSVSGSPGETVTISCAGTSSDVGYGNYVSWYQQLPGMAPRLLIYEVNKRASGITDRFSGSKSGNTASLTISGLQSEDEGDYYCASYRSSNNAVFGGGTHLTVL
[reply] -1.30

[ask] Record request: log10(OD values) value, item 10D02 mouse IgG1 (antibody, V domains shown, VH and VL cloned in frame with mouse IgG1 constant domains; also called 10D02 mIgG1) VH: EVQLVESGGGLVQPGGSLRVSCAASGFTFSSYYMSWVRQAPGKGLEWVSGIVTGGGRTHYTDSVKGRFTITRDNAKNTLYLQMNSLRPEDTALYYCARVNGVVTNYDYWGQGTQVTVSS VL: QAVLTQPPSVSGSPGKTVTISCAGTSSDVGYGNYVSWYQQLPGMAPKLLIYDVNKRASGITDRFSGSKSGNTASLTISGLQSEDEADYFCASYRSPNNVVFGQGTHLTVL
[reply] 0.55

[ask] What measured log10(OD values) goes with 8H11 mouse IgG1 (antibody, V domains shown, VH and VL cloned in frame with mouse IgG1 constant domains; also called 8H11 mIgG1) VH: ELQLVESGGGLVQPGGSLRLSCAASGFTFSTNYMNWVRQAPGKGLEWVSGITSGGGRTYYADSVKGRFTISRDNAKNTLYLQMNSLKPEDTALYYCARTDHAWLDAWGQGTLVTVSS VL: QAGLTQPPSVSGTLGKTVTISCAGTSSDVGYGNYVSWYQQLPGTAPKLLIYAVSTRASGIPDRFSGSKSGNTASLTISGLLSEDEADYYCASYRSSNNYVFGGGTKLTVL ?
[reply] 0.56

[ask] Query: log10(OD values); subject: 11F02 mouse IgG1 (antibody, V domains shown, VH and VL cloned in frame with mouse IgG1 constant domains; also called 11F02 mIgG1) VH: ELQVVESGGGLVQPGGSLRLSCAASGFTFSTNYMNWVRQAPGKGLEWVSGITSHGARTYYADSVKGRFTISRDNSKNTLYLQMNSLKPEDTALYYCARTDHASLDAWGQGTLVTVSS VL: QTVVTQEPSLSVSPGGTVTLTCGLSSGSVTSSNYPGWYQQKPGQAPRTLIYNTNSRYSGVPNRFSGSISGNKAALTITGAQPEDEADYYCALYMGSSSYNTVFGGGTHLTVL
[reply] 0.52

[ask] Entry 7B07 mouse IgG1 (antibody, V domains shown, VH and VL cloned in frame with mouse IgG1 constant domains; also called 7B07 mIgG1) VH: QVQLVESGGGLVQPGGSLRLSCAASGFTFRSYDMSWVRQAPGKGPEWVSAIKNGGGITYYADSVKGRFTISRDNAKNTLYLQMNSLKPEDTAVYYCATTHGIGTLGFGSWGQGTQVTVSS VL: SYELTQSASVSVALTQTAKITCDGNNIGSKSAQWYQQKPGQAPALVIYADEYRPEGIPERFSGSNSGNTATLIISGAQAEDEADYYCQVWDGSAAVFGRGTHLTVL has what log10(OD values)?
[reply] 0.51
